# reported % Encapsulation; entries follow
# Assay remarks: mRNA encapsulation by fluorescence of Qubit RNA HS dye before and after lysis with Triton X-100
# Format: physicochemical
# Experimental setup: percentage of mRNA encapsulation; Fluc mRNA/peptoid formulation, 5:1 mass ratio
Assay endpoint: % Encapsulation (%)

INSERT INTO measurements (compound, assay_endpoint, reading) VALUES
  ('CCCCCCCCCCN(CC(N)=O)C(=O)CN(CCCCCCCCCC)C(=O)CN(CCc1ccccc1)C(=O)CN(CCc1ccccc1)C(=O)CN(CC1CCCN1)C(=O)CN(CCc1ccccc1)C(=O)CN(CCc1ccccc1)C(=O)CN(CC1CCCN1)C(=O)CN(CCc1ccccc1)C(=O)CN(CCc1ccccc1)C(=O)CNCC1CCCN1 (centres unmarked) [Compound 36]', '% Encapsulation', 71.5),
  ('CCCCCCCCCCN(CC(N)=O)C(=O)CN(CCCCCCCCCC)C(=O)CN(CCc1ccccc1)C(=O)CN(CCc1ccccc1)C(=O)CN(CCNC)C(=O)CN(CCc1ccccc1)C(=O)CN(CCc1ccccc1)C(=O)CN(CCNC)C(=O)CN(CCc1ccccc1)C(=O)CN(CCc1ccccc1)C(=O)CNCCNC [Compound 27]', '% Encapsulation', 50.9);

----------
# Assay remarks: MTT viability assay after treatment with Fluc mRNA/amino lipidated peptoid formulations
# Assay type: cell-based
# Experimental setup: human, HeLa cells, Relative Viability (%) No PEG
Assay endpoint: viability at 8 h, 500 ng/well (%)

INSERT INTO results (mol, assay_endpoint, reading_unit, reading) VALUES
  ('CCCCCCCCCCN(CC(N)=O)C(=O)CN(CCCCCCCCCC)C(=O)CN(CCCCCCCCCC)C(=O)CN(CCCCCCCCCC)C(=O)CN(CCc1ccccc1)C(=O)CN(CCc1ccccc1)C(=O)CN(CCCN)C(=O)CN(CCc1ccccc1)C(=O)CN(CCc1ccccc1)C(=O)CN(CCCN)C(=O)CN(CCc1ccccc1)C(=O)CN(CCc1ccccc1)C(=O)CN(CCCN)C(=O)CN(CCc1ccccc1)C(=O)CN(CCc1ccccc1)C(=O)CNCCCN', 'viability at 8 h, 500 ng/well', '%', 85.9),
  ('CCCCCCCCCCN(CC(N)=O)C(=O)CN(CCCCCCCCCC)C(=O)CN(CCCCCCCCCC)C(=O)CN(CCCCCCCCCC)C(=O)CN(CCc1ccccc1)C(=O)CN(CCc1ccccc1)C(=O)CN(CC1CCNCC1)C(=O)CN(CCc1ccccc1)C(=O)CN(CCc1ccccc1)C(=O)CN(CC1CCNCC1)C(=O)CN(CCc1ccccc1)C(=O)CN(CCc1ccccc1)C(=O)CN(CC1CCNCC1)C(=O)CN(CCc1ccccc1)C(=O)CN(CCc1ccccc1)C(=O)CNCC1CCNCC1', 'viability at 8 h, 500 ng/well', '%', 90.7),
  ('CCCCCCCCCCN(CC(N)=O)C(=O)CN(CCCCCCCCCC)C(=O)CN(CCCCCCCCCC)C(=O)CN(CCCCCCCCCC)C(=O)CN(CCc1ccccc1)C(=O)CN(CCc1ccccc1)C(=O)CN(CC1CCNCC1)C(=O)CN(CCc1ccccc1)C(=O)CN(CCc1ccccc1)C(=O)CN(CC1CCNCC1)C(=O)CN(CCc1ccccc1)C(=O)CN(CCc1ccccc1)C(=O)CNCC1CCNCC1', 'viability at 8 h, 500 ng/well', '%', 83.8);

----------
# Assay remarks: Dynamic light scattering (DLS) of mRNA/peptoid formulations: particle size and polydispersity
# Type: physicochemical
# Experimental setup: volume average particle size/diameter by DLS; Fluc mRNA/peptoid formulation, 5:1 mass ratio peptoid:cargo
Assay endpoint: Size (nm)

INSERT INTO assay_data (mol, reading) VALUES
  ('CCCCCCCCCCN(CC(N)=O)C(=O)CN(CCCCCCCCCC)C(=O)CN(CCN)C(=O)CN(CCN)C(=O)CNCCN', 554),
  ('CCCCCCCCCCN(CC(N)=O)C(=O)CN(CCCCCCCCCC)C(=O)CN(CCCCCCCCCC)C(=O)CN(CCCCCCCCCC)C(=O)CN(CCc1ccccc1)C(=O)CN(CCc1ccccc1)C(=O)CN(CC1CCNCC1)C(=O)CN(CCc1ccccc1)C(=O)CN(CCc1ccccc1)C(=O)CN(CC1CCNCC1)C(=O)CN(CCc1ccccc1)C(=O)CN(CCc1ccccc1)C(=O)CN(CC1CCNCC1)C(=O)CN(CCc1ccccc1)C(=O)CN(CCc1ccccc1)C(=O)CNCC1CCNCC1', 247.5),
  ('CCCCCCCCCCN(CC(N)=O)C(=O)CN(CCCCCCCCCC)C(=O)CN(CCN)C(=O)CN(CCN)C(=O)CN(CCN)C(=O)CN(CCN)C(=O)CNCCN', 1064),
  ('CCCCCCCCCCN(CC(N)=O)C(=O)CN(CCCCCCCCCC)C(=O)CN(CCc1ccccc1)C(=O)CN(CCc1ccccc1)C(=O)CN(CC1CCNCC1)C(=O)CN(CCc1ccccc1)C(=O)CN(CCc1ccccc1)C(=O)CN(CC1CCNCC1)C(=O)CN(CCc1ccccc1)C(=O)CN(CCc1ccccc1)C(=O)CNCC1CCNCC1', 435.7);
